The reader will find reported 5-HT (inhibition of reuptake of serotonin, % inhibition) values listed item by item below.
# target_or_test_system: serotonin (5-HT) reuptake (Rattus norvegicus, UniProt P31652)
# Construct: synaptosomes are freshly isolated from areas of the rat brain; from tissue; host or cells: rat brain synaptosomes (P2 fraction)
# Sequence (P31652 whole entry): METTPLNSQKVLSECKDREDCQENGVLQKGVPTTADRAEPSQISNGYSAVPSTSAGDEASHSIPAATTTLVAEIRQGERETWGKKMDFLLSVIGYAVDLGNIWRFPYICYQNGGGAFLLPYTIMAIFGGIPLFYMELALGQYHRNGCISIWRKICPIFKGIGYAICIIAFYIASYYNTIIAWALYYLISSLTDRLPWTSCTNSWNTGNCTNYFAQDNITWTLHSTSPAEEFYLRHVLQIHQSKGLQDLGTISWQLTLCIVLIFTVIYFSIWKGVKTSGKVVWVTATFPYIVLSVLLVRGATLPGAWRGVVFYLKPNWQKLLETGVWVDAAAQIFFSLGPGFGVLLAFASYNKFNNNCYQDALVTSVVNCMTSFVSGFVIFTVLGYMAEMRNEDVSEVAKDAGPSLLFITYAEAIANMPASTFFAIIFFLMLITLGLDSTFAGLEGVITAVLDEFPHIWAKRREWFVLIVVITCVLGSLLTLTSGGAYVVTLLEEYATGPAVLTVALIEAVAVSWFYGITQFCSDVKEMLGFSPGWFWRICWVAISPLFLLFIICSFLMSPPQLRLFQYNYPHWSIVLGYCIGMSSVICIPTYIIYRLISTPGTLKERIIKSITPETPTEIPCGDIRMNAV
# assay_overview: Inhibition of serotonin (5HT) reuptake in synaptosomes from rat brain
# Type: biochemical
# condition_set: test concentration of 10 μM
reported_property: 5-HT (inhibition of reuptake of serotonin, % inhibition) (%)

{"molecule": "CN(C)C(c1cccc(F)c1)C1CCC(NC(=O)COCCN(C)S(=O)(=O)c2cccc(C(F)(F)F)c2)CC1 (centres unmarked) [Example 297]", "unit_info": "%", "measured_value": 86}
{"molecule": "CN(C)C(c1ccc(F)cc1)C1CCC(NC(=O)COCCN(C)S(=O)(=O)c2ccc(OC(F)(F)F)cc2)CC1 (centres unmarked) [Example 361]", "unit_info": "%", "measured_value": 87}
{"molecule": "COc1ccc(S(=O)(=O)N2CCC(OCC(=O)NCC3CCC(C(CCc4ccccc4)N(C)C)CC3)C2)cc1OC (centres unmarked) [Example 566]", "unit_info": "%", "measured_value": 87}
{"molecule": "COc1ccc(S(=O)(=O)N2Cc3ccccc3CC2COCC(=O)NCC2CCC(C(c3ccc(F)cc3)N(C)C)CC2)cc1 (centres unmarked) [Example 288]", "unit_info": "%", "measured_value": 94}
{"molecule": "CN(C)C(CCc1ccccc1)C1CCC(CNC(=O)COC2CCN(S(=O)(=O)c3ccc(Cl)cc3)C2)CC1 (centres unmarked) [Example 557]", "unit_info": "%", "measured_value": 88}
{"molecule": "CN(C)C(c1cccc(F)c1)C1CCC(CCNC(=O)COCCN(Cc2ccccc2)S(=O)(=O)c2ccccc2)CC1 (centres unmarked) [Example 278]", "unit_info": "%", "measured_value": 98}
{"molecule": "CN(C)C(c1ccc(Cl)cc1)C1CCC(CNC(=O)COCCN(C)S(=O)(=O)c2ccc(Cl)cc2Cl)CC1 (centres unmarked) [Example 459]", "unit_info": "%", "measured_value": 68}
{"molecule": "CN(C)C(c1ccc(Cl)cc1)C1CCC(CCNC(=O)COCCN(C)S(=O)(=O)c2c(Cl)cccc2Cl)CC1 (centres unmarked) [Example 274]", "unit_info": "%", "measured_value": 81}
{"molecule": "COc1cc(C)c(S(=O)(=O)N(CCOCC(=O)NC2CCC(C(c3cccc(F)c3)N(C)C)CC2)Cc2ccccc2)c(C)c1C (centres unmarked) [Example 419]", "unit_info": "%", "measured_value": 76}
{"molecule": "COc1cc(C)c(S(=O)(=O)N2CCCC(OCC(=O)NCCC3CCC(C(c4ccc(Cl)cc4)N(C)C)CC3)C2)c(C)c1C (centres unmarked) [Example 485]", "unit_info": "%", "measured_value": 92}
{"molecule": "CN(C)C(c1ccc(Cl)cc1)C1CCC(CNC(=O)COCCN(C)S(=O)(=O)c2ccc(F)cc2)CC1 (centres unmarked) [Example 263]", "unit_info": "%", "measured_value": 102}
{"molecule": "CN(C)C(c1cccc(F)c1)C1CCC(CCNC(=O)COC2CCN(S(=O)(=O)c3ccc(Cl)cc3Cl)C2)CC1 (centres unmarked) [Example 259]", "unit_info": "%", "measured_value": 90}
{"molecule": "CN(C)C(c1cccc(F)c1)C1CCC(CCNC(=O)COC2CCN(S(=O)(=O)c3ccccc3)CC2)CC1 (centres unmarked) [Example 444]", "unit_info": "%", "measured_value": 96}
{"molecule": "COc1cc(C)c(S(=O)(=O)N(C)CCOCC(=O)NCC2CCC(C(c3cccc(F)c3)N(C)C)CC2)c(C)c1 (centres unmarked) [Example 248]", "unit_info": "%", "measured_value": 90}
